Just for reference, paper PMC4183595 is where these values come from.

Measured half-life accompanies every entry in the list below.
- EXPERIMENTAL_DETAILS: Rat in vivo pharmacokinetics study after oral administration of product A, B or C
- Set-up: species or system Male Sprague-Dawley (SD) rats
- APPLIED_CONDITIONS: male, Sprague-Dawley, rat, plasma, po, 10 mL·kg^−1, rats, oral product A, 10 mL·kg^−1; read-out: T 1/2z
Respond with the bare value in h.

Task: Return the recorded half-life value; entry: C[C@@H]1O[C@@H](OC[C@H]2O[C@@H](Oc3c(-c4ccc(O)c(O)c4)oc4cc(O)cc(O)c4c3=O)[C@H](O)[C@@H](O)[C@@H]2O)[C@H](O)[C@H](O)[C@H]1O
Result: 7.93

Task: Return the recorded half-life value; entry: O=c1c(O[C@@H]2O[C@H](CO)[C@H](O)[C@H](O)[C@H]2O)c(-c2ccc(O)c(O)c2)oc2cc(O)cc(O)c12 [Hyperoside]
Result: 6.83

Next:
Task: Return the recorded half-life value; entry: O=c1c(O[C@@H]2O[C@H](CO)[C@@H](O)[C@H](O)[C@H]2O)c(-c2ccc(O)cc2)oc2cc(O)cc(O)c12
Result: 7.67

Task: Return the recorded half-life value; entry: O=C(O)[C@]1(O)C[C@@H](O)[C@@H](O)[C@H](O)C1
Result: 3.82

###

- EXPERIMENTAL_DETAILS: Rat in vivo pharmacokinetics study after oral administration of product A, B or C
- Parameters: species or system Male Sprague-Dawley (SD) rats
- APPLIED_CONDITIONS: male, Sprague-Dawley, rat, plasma, po, 10 mL·kg^−1, rats, oral product B, 10 mL·kg^−1; read-out: T 1/2z
- Experimental: Product A (extract mixed with FLJ extract and water, (1∶1, v / v )), product B (extract mixed with FF extract and water, (1∶1, v / v )) and product C (extract mixed with FLJ and FF extracts, (1∶1, v / v )) were given to oral administration to rats, respectively. Male SD rats (∼250 g) were kept in an environmentally controlled breeding room (temperature: 20±2°C, relative humidity: 60±5%) for 1 week. […]
Doc: threshold 300 min (exclusive). Items with half-life beneath it return rule met; others return rule not met.

Task: Input C[C@@H]1O[C@@H](OC[C@H]2O[C@@H](Oc3c(-c4ccc(O)c(O)c4)oc4cc(O)cc(O)c4c3=O)[C@H](O)[C@@H](O)[C@@H]2O)[C@H](O)[C@H](O)[C@H]1O ; condition: half-life strictly below 300 min. Does it hold?
Result: rule not met

Task: Input COc1cc(C[C@H]2C(=O)OC[C@@H]2Cc2ccc(OC)c(OC)c2)ccc1O ; condition: half-life strictly below 300 min. Does it hold?
Result: rule not met

Task: Input O=c1c(O)c(-c2ccc(O)c(O)c2)oc2cc(O)cc(O)c12 ; condition: half-life strictly below 300 min. Does it hold?
Result: rule not met

Task: Input O=C(O)[C@]1(O)C[C@@H](O)[C@@H](O)[C@H](O)C1 ; condition: half-life strictly below 300 min. Does it hold?
Result: rule met

Task: Input O=c1c(O[C@@H]2O[C@H](CO)[C@H](O)[C@H](O)[C@H]2O)c(-c2ccc(O)c(O)c2)oc2cc(O)cc(O)c12 [Hyperoside] ; condition: half-life strictly below 300 min. Does it hold?
Result: rule not met

Next:
Task: Input C[C@@H]1O[C@@H](OC[C@H]2O[C@@H](OCCc3ccc(O)c(O)c3)[C@H](O)[C@@H](O)[C@@H]2OC(=O)/C=C/c2ccc(O)c(O)c2)[C@H](O)[C@H](O)[C@H]1O [Forsythoside A] ; condition: half-life strictly below 300 min. Does it hold?
Result: rule met

Task: Input O=C(O)/C=C/c1ccc(O)c(O)c1 ; condition: half-life strictly below 300 min. Does it hold?
Result: rule not met

Task: Input O=c1c(O[C@@H]2O[C@H](CO)[C@@H](O)[C@H](O)[C@H]2O)c(-c2ccc(O)c(O)c2)oc2cc(O)cc(O)c12 ; condition: half-life strictly below 300 min. Does it hold?
Result: rule not met

Task: Input COc1cc(C2OCC3C(c4ccc(O[C@@H]5O[C@H](CO)[C@@H](O)[C@H](O)[C@H]5O)c(OC)c4)OCC23)ccc1O (stereo partly drawn) [Pinoresinol-β-D-glucoside] ; condition: half-life strictly below 300 min. Does it hold?
Result: rule met

###

- EXPERIMENTAL_DETAILS: Rat in vivo pharmacokinetics study after oral administration of product A, B or C
- Parameters: species or system Male Sprague-Dawley (SD) rats
- APPLIED_CONDITIONS: male, Sprague-Dawley, rat, plasma, po, 10 mL·kg^−1, rats, oral product A, 10 mL·kg^−1; read-out: T 1/2z
QUANTITY: half-life (h)
Respond with the bare value in h.

In the examples that follow, each entry is paired with its recorded half-life.
Task: Return the recorded half-life value; entry: O=c1c(O[C@@H]2O[C@H](CO)[C@@H](O)[C@H](O)[C@H]2O)c(-c2ccc(O)c(O)c2)oc2cc(O)cc(O)c12 [Isoquercitrin]
Result: 7.27

Task: Return the recorded half-life value; entry: O=c1cc(-c2ccc(O)c(O)c2)oc2cc(O)cc(O)c12 [Luteolin]
Result: 7.05

Task: Return the recorded half-life value; entry: O=c1c(O)c(-c2ccc(O)c(O)c2)oc2cc(O)cc(O)c12 [Quercetin]
Result: 4.62

Next:
Task: Return the recorded half-life value; entry: O=C(/C=C/c1ccc(O)c(O)c1)O[C@@H]1C[C@@](O)(C(=O)O)C[C@@H](O)[C@@H]1O [Neochlorogenic acid]
Result: 7.63

###

Measured log10 AUC(0-inf) accompanies every entry in the list below.
- EXPERIMENTAL_DETAILS: Rat in vivo pharmacokinetics study after oral administration of product A, B or C
- Design: species or system Male Sprague-Dawley (SD) rats
- APPLIED_CONDITIONS: male, Sprague-Dawley, rat, plasma, po, 10 mL·kg^−1, rats, oral product C, 10 mL·kg^−1
Short version: log10 scale, AUC(0-inf), ng·h/mL.

Task: Return the recorded log10 AUC(0-inf) value; entry: O=C(/C=C/c1ccc(O)c(O)c1)O[C@@H]1C[C@](O)(C(=O)O)C[C@@H](OC(=O)/C=C/c2ccc(O)c(O)c2)[C@H]1O
Result: 1.95

Task: Return the recorded log10 AUC(0-inf) value; entry: O=c1c(-c2ccc(O)cc2)coc2cc(O[C@@H]3O[C@H](CO)[C@@H](O)[C@H](O)[C@H]3O)cc(O)c12
Result: -0.09

Task: Return the recorded log10 AUC(0-inf) value; entry: O=c1c(O)c(-c2ccc(O)c(O)c2)oc2cc(O)cc(O)c12
Result: 1.72

Task: Return the recorded log10 AUC(0-inf) value; entry: COc1cc(C2OCC3C(c4ccc(O[C@@H]5O[C@H](CO)[C@@H](O)[C@H](O)[C@H]5O)c(OC)c4)OCC23)ccc1O (stereo partly drawn) [Pinoresinol-β-D-glucoside]
Result: 1.83

Task: Return the recorded log10 AUC(0-inf) value; entry: O=C(C=Cc1ccc(O)c(O)c1)OC1CC(O)(C(=O)O)CC(O)C1OC(=O)C=Cc1ccc(O)c(O)c1 (stereo not drawn)
Result: 1.59

Task: Return the recorded log10 AUC(0-inf) value; entry: O=c1c(O[C@@H]2O[C@H](CO)[C@@H](O)[C@H](O)[C@H]2O)c(-c2ccc(O)c(O)c2)oc2cc(O)cc(O)c12
Result: 0.74

Task: Return the recorded log10 AUC(0-inf) value; entry: O=C(O)/C=C/c1ccc(O)c(O)c1
Result: 2.87

Task: Return the recorded log10 AUC(0-inf) value; entry: C[C@@H]1O[C@@H](OC[C@H]2O[C@@H](OCCc3ccc(O)c(O)c3)[C@H](O)[C@@H](O)[C@@H]2OC(=O)/C=C/c2ccc(O)c(O)c2)[C@H](O)[C@H](O)[C@H]1O [Forsythoside A]
Result: 2.89

###

Measured P app in product C group, % compared to that in product A group accompanies every entry in the list below.
- Test system: Caco-2 cells
- EXPERIMENTAL_DETAILS: In vitro Caco-2 monolayer model, apical to basolateral transport (P app)
- Format: in vitro ADME, human
- APPLIED_CONDITIONS: Caco-2 monolayer, HBSS pH 6.0, apical to basolateral
Please don't drop the unit; write it after the number.

In the examples that follow, each entry is paired with its recorded P app in product C group, % compared to that in product A group.
Task: Jot down P app in product C group, % compared to that in product A group (Caco-2 cells) of O=c1c(O[C@@H]2O[C@H](CO)[C@H](O)[C@H](O)[C@H]2O)c(-c2ccc(O)c(O)c2)oc2cc(O)cc(O)c12 [Hyperoside] .
Result: 129%

Task: Jot down P app in product C group, % compared to that in product A group (Caco-2 cells) of COC(=O)C1=CO[C@@H](O[C@@H]2O[C@H](CO)[C@@H](O)[C@H](O)[C@H]2O)[C@@H]2[C@@H](C)[C@@H](O)C[C@H]12 .
Result: 211%

Next:
Task: Jot down P app in product C group, % compared to that in product A group (Caco-2 cells) of O=c1cc(-c2ccc(O)c(O)c2)oc2cc(O)cc(O)c12 .
Result: 240%

Task: Jot down P app in product C group, % compared to that in product A group (Caco-2 cells) of C[C@@H]1O[C@@H](OC[C@H]2O[C@@H](Oc3c(-c4ccc(O)c(O)c4)oc4cc(O)cc(O)c4c3=O)[C@H](O)[C@@H](O)[C@@H]2O)[C@H](O)[C@H](O)[C@H]1O .
Result: 213%
